Measured Ratio IC50 of individual entries
test system: Hepacivirus hominis; experiment: Ratio of IC50 for HCV NS5B polymerase S282T mutant to IC50 for HCV NS5B polymerase by single-nucleotide incorporation assay
assayMetric: Ratio IC50

1) C[C@@]1(O)[C@H](O)[C@@H](COP(=O)(O)OP(=O)(O)OP(=O)(O)O)O[C@H]1n1ccc(N)nc1=O [2'-C-METHYLCYTIDINE TRIPHOSPHATE] | 9.5
2) Nc1ncnc2c1ncn2[C@@H]1O[C@H](COP(=O)(O)OP(=O)(O)OP(=O)(O)O)C[C@H]1O | 2
3) Nc1ccn([C@@H]2O[C@H](COP(=O)(O)OP(=O)(O)OP(=O)(O)O)C[C@H]2O)c(=O)n1 | 1.7

----------
Each entry below lists one item and its recorded pIC50 value.
test: Inhibition of HCV NS5B polymerase assessed as blocking of full length RNA product formation by single-nucleotide incorporation assay; parameters: species or system Hepacivirus hominis
pIC50: −log10 of the molar value.
assayMetric: pIC50

1. C[C@@]1(O)[C@H](O)[C@@H](COP(=O)(O)OP(=O)(O)OP(=O)(O)O)O[C@H]1n1cnc2c(N)ncnc21 | 5.38
2. Nc1ncnc2c1ncn2[C@@H]1O[C@H](COP(=O)(O)OP(=O)(O)OP(=O)(O)O)C[C@H]1O | 5.36
3. Nc1ccn([C@@H]2O[C@H](COP(=O)(O)OP(=O)(O)OP(=O)(O)O)C[C@H]2O)c(=O)n1 | 6.34
4. C[C@@]1(O)[C@H](O)[C@@H](COP(=O)(O)OP(=O)(O)OP(=O)(O)O)O[C@H]1n1ccc(N)nc1=O [2'-C-METHYLCYTIDINE TRIPHOSPHATE] | 5.20

----------
biological target: RNA-directed RNA polymerase (Hepacivirus hominis, UniProt O39930, S282T); assay: Inhibition of HCV NS5B polymerase S282T mutant assessed as blocking of full length RNA product formation by single-nucleotide incorporation assay
Sequence (O39930 entry or part of it S282T): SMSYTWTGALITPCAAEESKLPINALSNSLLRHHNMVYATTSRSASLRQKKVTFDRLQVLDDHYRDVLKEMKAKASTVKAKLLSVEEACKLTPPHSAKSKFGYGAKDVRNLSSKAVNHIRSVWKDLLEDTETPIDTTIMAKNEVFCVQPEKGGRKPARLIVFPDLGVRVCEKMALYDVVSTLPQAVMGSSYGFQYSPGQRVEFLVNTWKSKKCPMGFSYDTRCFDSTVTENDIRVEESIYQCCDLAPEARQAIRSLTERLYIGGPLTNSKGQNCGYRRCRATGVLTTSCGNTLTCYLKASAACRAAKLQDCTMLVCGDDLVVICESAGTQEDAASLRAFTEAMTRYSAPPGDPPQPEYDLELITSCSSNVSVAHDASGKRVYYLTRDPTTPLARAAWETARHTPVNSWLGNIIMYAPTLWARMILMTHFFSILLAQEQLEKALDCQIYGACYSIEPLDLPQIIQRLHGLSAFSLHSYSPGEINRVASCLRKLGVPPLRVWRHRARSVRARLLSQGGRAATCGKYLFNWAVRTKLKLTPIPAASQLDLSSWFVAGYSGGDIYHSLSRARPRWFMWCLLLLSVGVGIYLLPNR
Listed next: entries and their corresponding IC50.
assayMetric: IC50 (µM)

1) Nc1ncnc2c1ncn2[C@@H]1O[C@H](COP(=O)(O)OP(=O)(O)OP(=O)(O)O)C[C@H]1O | 8.8
2) Nc1ccn([C@@H]2O[C@H](COP(=O)(O)OP(=O)(O)OP(=O)(O)O)C[C@H]2O)c(=O)n1 | 0.77
3) C[C@@]1(O)[C@H](O)[C@@H](COP(=O)(O)OP(=O)(O)OP(=O)(O)O)O[C@H]1n1ccc(N)nc1=O [2'-C-METHYLCYTIDINE TRIPHOSPHATE] | 60

Data credit: ChEMBL document CHEMBL1155141
